Taken from patent US20230025510A1.

Tested on: Ba/F3-EGFR ins. ASV cells
Test: Cell proliferation suppression test (CellTiter-Glo, GI50), Ba/F3-EGFR ins. ASV
Format: cell-based
Conditions: Mus musculus, 72 h, 3 days, N=4
Property Name: GI50 (nM)

Consider the worked cases shown below.
| Compound Smiles | GI50, nM |
| --- | --- |
| COc1cc2ncnc(Nc3ccc(Oc4cccc(-c5nnc(C)s5)c4)cc3F)c2cc1NC(=O)/C=C/CN(C)C | 15.5 |
| COc1cc2ncnc(Nc3ccc(Oc4nn(CC(=O)NC(C)(C)C)cc4F)cc3F)c2cc1NC(=O)/C=C/CN1CC(F)C1 | 11.9 |
| C=CC(=O)N1CCC(Oc2cc3c(Nc4ccc(Oc5cccc(-c6cn(C)nn6)c5)cc4F)ncnc3cc2OC)CC1 | 13.9 |
| CCOc1cc2ncnc(Nc3ccc(Oc4cccc(-c5nnc(C)o5)c4)cc3F)c2cc1NC(=O)/C=C/CN[C@H]1CCOC1 | 11.9 |

a: CCOc1cc2ncnc(Nc3ccc(Oc4cccc(-c5nnc(C)o5)c4)cc3F)c2cc1NC(=O)/C=C/CN[C@@H]1CCOC1
b: C=CC(=O)N1CCC(Oc2cc3c(Nc4ccc(Oc5nc(-c6cnc(C)c(Cl)c6)cs5)cc4F)ncnc3cc2OC)CC1
c: C=CC(=O)N1CCC(Oc2cc3c(Nc4ccc(Oc5cccc(-c6nnc(C)o6)c5)cc4F)ncnc3cc2OCF)CC1
[ask] Hey, can you sort those molecules up there by GI50, smallest first? Give the labels in the order requested.
[reply] a, c, b
